Measured luciferase signal of individual entries
systemTested: Mitogen-activated protein kinase 7 (Homo sapiens) (UniProt Q13164)
Sequence (Q13164 whole entry, looked up, the tested form may be a part): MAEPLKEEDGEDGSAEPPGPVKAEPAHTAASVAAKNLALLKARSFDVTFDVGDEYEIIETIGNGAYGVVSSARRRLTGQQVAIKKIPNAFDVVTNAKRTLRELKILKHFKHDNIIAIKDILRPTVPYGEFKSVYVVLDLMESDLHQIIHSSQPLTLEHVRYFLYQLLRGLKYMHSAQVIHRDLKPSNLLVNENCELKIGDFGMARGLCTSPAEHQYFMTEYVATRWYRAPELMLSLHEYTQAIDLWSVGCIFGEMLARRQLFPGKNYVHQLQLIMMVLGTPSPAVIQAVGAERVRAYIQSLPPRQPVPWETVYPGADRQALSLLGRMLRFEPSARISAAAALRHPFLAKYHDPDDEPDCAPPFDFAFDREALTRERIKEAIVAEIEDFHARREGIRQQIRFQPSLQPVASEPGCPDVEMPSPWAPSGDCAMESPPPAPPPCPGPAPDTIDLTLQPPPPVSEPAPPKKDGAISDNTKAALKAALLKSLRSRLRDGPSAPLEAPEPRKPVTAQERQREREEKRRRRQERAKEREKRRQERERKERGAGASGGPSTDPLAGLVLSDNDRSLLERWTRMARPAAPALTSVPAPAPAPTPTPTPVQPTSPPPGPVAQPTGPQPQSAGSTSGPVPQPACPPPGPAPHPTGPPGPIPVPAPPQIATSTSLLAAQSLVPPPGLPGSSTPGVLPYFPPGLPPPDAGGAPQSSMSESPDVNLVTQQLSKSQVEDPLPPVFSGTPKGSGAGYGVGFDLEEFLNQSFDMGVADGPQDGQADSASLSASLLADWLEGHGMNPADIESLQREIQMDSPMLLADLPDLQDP
testDetails: ERK5 transactivation activators in reporter cells, primary screen, cell-based, HTS (AID 1508626);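 further: luciferase driven by Gal4-ERK5 fusion binding five Gal4 sites before minimal TATA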
conditionsUsed: HeLa Gal4-ERK5 transactivation, 18 h, at 5 µM, stronger effect = higher value
Calls of active or inactive are those of the source.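 How the source made its calls: active means luciferase signal above three times the same-plate solvent-only control wells; inactive means the rest.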

Recorded results for 8 compounds are shown here.
INSERT INTO results (compound, observedmeasurement) VALUES
  ('COC(=O)[C@]1(C)CC[C@]2(C)CC[C@]3(C)C4=CC=C5C(=CC(=O)C(O)=C5C)[C@]4(C)CC[C@@]3(C)[C@@H]2C1', '152 AU (inactive)'),
  ('C[CH2][Hg][S]c1ccccc1C(=O)O', '44 AU (inactive)'),
  ('C=C1C[C@@H]2[C@H](CC[C@]3(C)C(=O)CC[C@@H]23)[C@@]2(C)C=CC(=O)C=C12', '60 AU (inactive)'),
  ('CN1CCc2cc3c(cc2C1O)OCO3 (stereo not drawn)', '52 AU (inactive)'),
  ('CC(=O)NC1CCSC1=O (stereo not drawn)', '52 AU (inactive)'),
  ('CC(=O)[O][Hg][c]1ccccc1', '32 AU (inactive)'),
  ('O=C(CCCN1CCC2(CC1)C(=O)NCN2c1ccccc1)c1ccc(F)cc1', '60 AU (inactive)'),
  ('O=c1cccc2n1CC1CC2CN2CCCC[C@@H]12 (stereo partly drawn)', '56 AU (inactive)');

Asked: Requested read-out: luciferase signal. Entry: C[C@@H]([C@H](O)c1ccccc1)N(C)C
Given back: 108 AU (inactive)

Asked: Requested read-out: luciferase signal. Entry: CSc1nc(NC(C)C)nc(NC(C)C)n1
Given back: 60 AU (inactive)

Asked: Requested read-out: luciferase signal. Entry: O=C(NC(=O)c1c(F)cccc1F)Nc1ccc(Cl)cc1
Given back: 32 AU (inactive)

Asked: Requested read-out: luciferase signal. Entry: NCC1(CC(=O)O)CCCCC1
Given back: 76 AU (inactive)

Asked: Requested read-out: luciferase signal. Entry: CCCCCCCCC(=O)NCc1ccc(O)c(OC)c1
Given back: 52 AU (inactive)

Asked: Requested read-out: luciferase signal. Entry: CC1(C)C(=O)C=C[C@]2(C)[C@H]3CC[C@@]4(C)[C@H](c5ccoc5)OC(=O)[C@H]5O[C@]54[C@]3(C)[C@H](O)C[C@@H]12
Given back: 16 AU (inactive)
